Source listed as ChEMBL document CHEMBL1667792.

target: DNA-dependent protein kinase catalytic subunit (Homo sapiens)
Sequence (P78527 whole entry): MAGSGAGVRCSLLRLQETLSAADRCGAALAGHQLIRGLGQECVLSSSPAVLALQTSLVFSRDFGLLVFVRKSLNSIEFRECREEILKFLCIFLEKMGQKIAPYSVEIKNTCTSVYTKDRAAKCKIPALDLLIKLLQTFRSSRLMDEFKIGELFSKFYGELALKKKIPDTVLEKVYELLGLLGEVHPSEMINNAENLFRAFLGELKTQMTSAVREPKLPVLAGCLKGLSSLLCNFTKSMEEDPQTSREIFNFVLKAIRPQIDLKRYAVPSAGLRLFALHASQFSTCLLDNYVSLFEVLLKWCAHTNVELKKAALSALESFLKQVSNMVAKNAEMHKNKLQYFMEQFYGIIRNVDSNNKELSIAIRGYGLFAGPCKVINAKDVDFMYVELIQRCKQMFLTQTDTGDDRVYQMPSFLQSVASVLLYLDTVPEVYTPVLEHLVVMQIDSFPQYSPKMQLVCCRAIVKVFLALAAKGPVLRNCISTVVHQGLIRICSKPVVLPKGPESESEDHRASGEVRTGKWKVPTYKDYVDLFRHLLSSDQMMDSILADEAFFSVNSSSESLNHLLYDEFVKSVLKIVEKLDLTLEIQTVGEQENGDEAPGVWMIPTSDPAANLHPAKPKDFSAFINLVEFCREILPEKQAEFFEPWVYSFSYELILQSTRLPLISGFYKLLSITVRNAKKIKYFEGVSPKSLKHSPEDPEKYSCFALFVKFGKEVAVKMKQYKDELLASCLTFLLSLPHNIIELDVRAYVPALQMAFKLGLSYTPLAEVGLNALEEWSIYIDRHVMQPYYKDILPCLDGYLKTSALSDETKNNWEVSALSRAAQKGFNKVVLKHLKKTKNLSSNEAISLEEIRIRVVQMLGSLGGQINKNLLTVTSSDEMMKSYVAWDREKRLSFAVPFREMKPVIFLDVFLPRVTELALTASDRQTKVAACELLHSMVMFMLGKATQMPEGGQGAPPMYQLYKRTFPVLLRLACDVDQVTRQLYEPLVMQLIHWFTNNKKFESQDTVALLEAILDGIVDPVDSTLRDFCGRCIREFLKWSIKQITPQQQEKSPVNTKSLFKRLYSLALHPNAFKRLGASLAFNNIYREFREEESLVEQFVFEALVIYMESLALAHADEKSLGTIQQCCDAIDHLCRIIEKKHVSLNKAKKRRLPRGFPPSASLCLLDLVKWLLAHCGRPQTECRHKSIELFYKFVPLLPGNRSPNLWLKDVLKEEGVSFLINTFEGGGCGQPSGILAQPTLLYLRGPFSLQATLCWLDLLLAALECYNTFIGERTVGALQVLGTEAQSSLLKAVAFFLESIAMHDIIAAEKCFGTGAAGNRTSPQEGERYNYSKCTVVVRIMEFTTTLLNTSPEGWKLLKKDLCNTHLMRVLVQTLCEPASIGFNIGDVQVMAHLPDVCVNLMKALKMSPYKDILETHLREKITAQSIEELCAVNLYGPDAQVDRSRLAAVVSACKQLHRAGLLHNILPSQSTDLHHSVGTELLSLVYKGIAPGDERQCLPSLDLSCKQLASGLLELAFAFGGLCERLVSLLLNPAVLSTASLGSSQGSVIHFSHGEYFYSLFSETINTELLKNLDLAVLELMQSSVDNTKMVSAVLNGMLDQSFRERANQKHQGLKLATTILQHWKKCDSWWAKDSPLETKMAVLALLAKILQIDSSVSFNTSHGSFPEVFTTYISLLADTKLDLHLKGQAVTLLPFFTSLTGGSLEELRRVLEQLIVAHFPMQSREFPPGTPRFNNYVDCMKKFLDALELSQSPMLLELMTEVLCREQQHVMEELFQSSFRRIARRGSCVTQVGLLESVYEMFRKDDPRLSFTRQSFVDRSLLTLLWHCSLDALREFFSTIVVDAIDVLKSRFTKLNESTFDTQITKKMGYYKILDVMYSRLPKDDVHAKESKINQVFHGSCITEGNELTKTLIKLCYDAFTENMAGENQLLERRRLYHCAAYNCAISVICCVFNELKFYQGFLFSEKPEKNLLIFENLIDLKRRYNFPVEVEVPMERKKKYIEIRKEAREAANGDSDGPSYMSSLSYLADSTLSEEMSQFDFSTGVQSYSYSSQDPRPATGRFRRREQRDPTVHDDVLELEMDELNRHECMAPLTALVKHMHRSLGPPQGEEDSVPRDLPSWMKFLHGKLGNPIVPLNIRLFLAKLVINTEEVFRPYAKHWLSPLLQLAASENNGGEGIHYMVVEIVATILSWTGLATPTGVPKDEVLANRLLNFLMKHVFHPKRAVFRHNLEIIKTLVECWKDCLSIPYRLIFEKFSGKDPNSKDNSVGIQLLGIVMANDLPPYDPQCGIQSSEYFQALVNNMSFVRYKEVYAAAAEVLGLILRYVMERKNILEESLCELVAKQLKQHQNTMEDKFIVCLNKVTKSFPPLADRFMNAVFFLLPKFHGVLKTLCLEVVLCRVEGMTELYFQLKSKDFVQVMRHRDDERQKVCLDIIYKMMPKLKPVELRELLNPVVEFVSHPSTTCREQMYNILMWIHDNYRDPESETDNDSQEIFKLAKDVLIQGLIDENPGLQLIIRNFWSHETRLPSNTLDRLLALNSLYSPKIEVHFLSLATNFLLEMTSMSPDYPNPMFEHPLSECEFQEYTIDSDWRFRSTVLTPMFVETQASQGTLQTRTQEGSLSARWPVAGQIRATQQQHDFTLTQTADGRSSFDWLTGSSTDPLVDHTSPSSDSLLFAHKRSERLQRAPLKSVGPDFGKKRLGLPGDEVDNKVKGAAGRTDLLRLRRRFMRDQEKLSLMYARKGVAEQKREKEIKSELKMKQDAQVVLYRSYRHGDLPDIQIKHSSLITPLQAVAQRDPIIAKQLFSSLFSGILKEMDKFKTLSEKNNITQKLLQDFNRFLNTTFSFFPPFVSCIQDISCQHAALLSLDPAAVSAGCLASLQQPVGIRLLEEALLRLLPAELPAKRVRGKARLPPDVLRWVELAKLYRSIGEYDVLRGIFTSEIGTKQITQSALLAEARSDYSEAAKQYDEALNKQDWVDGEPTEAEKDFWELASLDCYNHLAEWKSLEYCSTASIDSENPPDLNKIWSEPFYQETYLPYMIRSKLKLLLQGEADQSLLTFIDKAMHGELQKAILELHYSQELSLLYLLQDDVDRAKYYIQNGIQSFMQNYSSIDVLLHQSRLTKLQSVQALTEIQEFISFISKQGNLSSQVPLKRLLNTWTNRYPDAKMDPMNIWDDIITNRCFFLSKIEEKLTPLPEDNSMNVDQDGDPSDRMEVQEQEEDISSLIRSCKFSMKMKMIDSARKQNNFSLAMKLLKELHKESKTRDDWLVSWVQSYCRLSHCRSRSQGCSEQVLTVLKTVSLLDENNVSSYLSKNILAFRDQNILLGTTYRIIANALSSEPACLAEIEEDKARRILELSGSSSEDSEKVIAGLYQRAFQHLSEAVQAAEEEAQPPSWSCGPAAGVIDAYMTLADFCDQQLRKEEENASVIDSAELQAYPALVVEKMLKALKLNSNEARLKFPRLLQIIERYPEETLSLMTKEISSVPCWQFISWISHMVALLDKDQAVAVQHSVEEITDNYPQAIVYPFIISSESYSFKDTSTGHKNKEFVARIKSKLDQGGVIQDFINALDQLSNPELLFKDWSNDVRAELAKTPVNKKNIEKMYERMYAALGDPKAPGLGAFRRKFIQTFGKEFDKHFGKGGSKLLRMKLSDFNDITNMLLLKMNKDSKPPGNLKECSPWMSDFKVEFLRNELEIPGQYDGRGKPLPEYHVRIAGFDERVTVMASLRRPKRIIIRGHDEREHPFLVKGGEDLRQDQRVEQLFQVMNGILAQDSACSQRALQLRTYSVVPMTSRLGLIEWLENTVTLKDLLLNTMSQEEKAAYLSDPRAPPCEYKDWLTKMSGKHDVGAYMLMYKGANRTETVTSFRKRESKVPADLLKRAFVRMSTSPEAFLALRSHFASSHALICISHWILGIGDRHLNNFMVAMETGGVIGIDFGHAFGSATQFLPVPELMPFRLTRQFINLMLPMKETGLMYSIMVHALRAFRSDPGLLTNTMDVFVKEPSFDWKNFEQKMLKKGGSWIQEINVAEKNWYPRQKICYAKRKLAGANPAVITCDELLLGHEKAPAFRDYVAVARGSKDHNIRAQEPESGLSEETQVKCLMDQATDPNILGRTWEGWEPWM
Quick rule for you: IC50 under 1000 nM gets yes (1), anything else gets no (0).

Strictly below 1000 nM: is that where IC50 of O=C(CN1CCOCC1)Nc1ccc(-c2cccc3c(=O)cc(N4CCOCC4)oc23)cc1OCCN1CCCC1 sits?
no (0)

What about this molecule? O=C(CN1CCOCC1)Nc1ccc(-c2cccc3c(=O)cc(N4CCOCC4)oc23)cc1OCC1CC1
yes (1)

What about this molecule? O=c1cc(N2CCOCC2)oc2c(-c3cccc4c3sc3ccccc34)cccc12
yes (1)

What about this molecule? NC(=O)COc1cc(-c2cccc3c(=O)cc(N4CCOCC4)oc23)ccc1NC(=O)CN1CCOCC1
no (0)

What about this molecule? NCCOc1cc(-c2cccc3c(=O)cc(N4CCOCC4)oc23)ccc1NC(=O)CN1CCOCC1
no (0)

What about this molecule? CC(C)COc1cc(-c2cccc3c(=O)cc(N4CCOCC4)oc23)ccc1NC(=O)CN1CCOCC1
yes (1)

What about this molecule? CC1(COc2cc(-c3cccc4c(=O)cc(N5CCOCC5)oc34)ccc2NC(=O)CN2CCOCC2)COC1
yes (1)

What about this molecule? O=c1cc(N2CCOCC2)oc2c(-c3ccccc3)cccc12 [LY-294002]
no (0)
